target: Cannabinoid receptor 2 (Homo sapiens); assay: Displacement of human recombinant CB2 receptor expressed in HEK293 cell membranes incubated for 90 mins by Cheng-Prusoff equation based analysis
attributeMeasured: Ki

CCOC(=O)CNC(=O)/C=C/C=C/c1ccc2c(c1)-c1ccccc1C2 = > 10 µM

Consider the compound shown here: `CCS(=O)(=O)NCCCCCOc1cccc2ccccc12` What is its recorded Ki?
> 10 µM

What about `O=C(/C=C/C=C/c1ccc2c(c1)OCCO2)NC1CC1` ?
> 10 µM

What do you have for `CCS(=O)(=O)NCCCCCOc1ccc2ccccc2c1` ?
> 10 µM

# repeat for `O=C(CCCCCOc1ccc2ccccc2c1)NC1CC1`
> 10 µM

Also need `O=C(/C=C/C=C/c1ccc2c(c1)-c1ccccc1C2)NCCO` , thanks.
> 10 µM

Entry `NC(=O)NCCCCCOc1cccc2ccccc12` please
> 10 µM

Now give it for `NC(=O)NCCCCCOc1ccc2c(c1)OCO2` too.
> 10 µM

Would you kindly repeat that for `CCNC(=O)NCCCCCSc1ccc2ccccc2c1` ?
0.56 µM

Query `CCOC(=O)CNC(=O)/C=C/C=C/c1ccc2c(c1)OCCO2` next
2.56 µM

Same question, `O=C(CCCCCOc1cccc2ccccc12)NCCO` this time
> 10 µM

Next compound up: `O=C(CCCCCOc1cccc2ccccc12)NC1CC1`
> 10 µM

How about `CCS(=O)(=O)NCCCCCSc1ccc2ccccc2c1` ?
1.32 µM

###

biological target: Cannabinoid receptor 2 (Homo sapiens, UniProt P34972); experiment: Displacement of human recombinant CB2 receptor expressed in HEK293 cell membranes incubated for 90 mins by radioligand binding assay
Sequence (P34972 whole entry): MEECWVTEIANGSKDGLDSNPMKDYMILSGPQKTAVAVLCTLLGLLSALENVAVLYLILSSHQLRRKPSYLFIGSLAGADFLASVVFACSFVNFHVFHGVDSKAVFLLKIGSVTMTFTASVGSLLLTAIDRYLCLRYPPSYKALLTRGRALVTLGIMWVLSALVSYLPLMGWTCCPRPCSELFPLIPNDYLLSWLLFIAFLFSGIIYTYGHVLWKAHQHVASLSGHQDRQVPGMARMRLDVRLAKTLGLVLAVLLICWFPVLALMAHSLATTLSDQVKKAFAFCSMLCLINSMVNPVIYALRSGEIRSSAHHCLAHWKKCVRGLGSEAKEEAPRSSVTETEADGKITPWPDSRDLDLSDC
attributeMeasured: IC50

Solved entries:
O=C(/C=C/C=C/c1ccc2ccccc2c1)NC1CC1 = 3.02 µM
O=C(CCCCCOc1ccc2ccccc2c1)NCCO = > 10 µM
CCOC(=O)CNC(=O)CCCCCOc1ccc2ccccc2c1 = > 10 µM
CCS(=O)(=O)NCCCCCSc1ccc2ccccc2c1 = 5.02 µM
O=C(/C=C/C=C/c1ccc2ccccc2c1)NCCO = 4.81 µM
CCNC(=O)NCCCCCOc1ccc2ccccc2c1 = > 10 µM
CCOC(=O)CNC(=O)CCCCCOc1cccc2ccccc12 = > 10 µM
CCOC(=O)CNC(=O)/C=C/C=C/c1ccc2ccccc2c1 = > 10 µM

# lookup: IC50 of `O=C(/C=C/C=C/c1ccc2c(c1)-c1ccccc1C2)NC1CC1`
> 10 µM

Please do the same for `O=C(CCCCCOc1cccc2ccccc12)NCCO` as well.
> 10 µM

Moving on to the next molecule: `CCS(=O)(=O)NCCCCCOc1ccc2c(c1)OCO2`
> 10 µM

Similarly, `CCS(=O)(=O)NCCCCCOc1ccc2ccccc2c1` ?
> 10 µM

Now give it for `CCOC(=O)CNC(=O)/C=C/C=C/c1ccc2c(c1)-c1ccccc1C2` too.
> 10 µM

Entry `CCOC(=O)CNC(=O)/C=C/C=C/c1ccc2c(c1)OCCO2` please
9.69 µM

What do we get for `O=C(/C=C/C=C/c1ccc2c(c1)-c1ccccc1C2)NCCO` ?
> 10 µM

Further, for `O=C(CCCCCOc1ccc2ccccc2c1)NC1CC1` ?
> 10 µM

Same read-out for `CCNC(=O)NCCCCCSc1ccc2ccccc2c1` ?
2.11 µM

What about `NC(=O)NCCCCCOc1ccc2c(c1)OCO2` ?
> 10 µM

What about `CCCC(C)(C)c1ccc2c(c1)OC(C)(C)[C@@H]1CC=C(C)C[C@@H]21` ?
0.55 µM
